Taken from patent US10618903B2.

Papp at 2 h, 3 µM overview
Experiment: Caco Permeability Assay
Type: in vitro ADME
Settings: human, Caco-2, Caco-2 cells, 3 μM compound
Please state the figure in ×10⁻⁶ cm/s; there is no need to write the unit.

# Smiles string, Value unit, Papp at 2 h, 3 µM
data = [
    ("Cc1cnn2c(-c3cc(NC4CCC4)c(C(=O)NC[C@@H](F)C(C)(C)O)cn3)cnc2c1", "×10⁻⁶ cm/s", 4.7),
    ("CC(C)Nc1cc(-c2cnc3cc(C#N)cnn23)ncc1C(=O)NC[C@H](F)C(C)(C)O", "×10⁻⁶ cm/s", 4.2),
    ("CC(C)(O)[C@H]1CC[C@H](NC(=O)c2cnc(-c3cnc4cc(C#N)cnn34)cc2Nc2cnn(C3CC3)c2)CC1", "×10⁻⁶ cm/s", 5.5),
]

# input Report Papp at 2 h, 3 µM for CC(C)(O)[C@H](F)CNC(=O)c1cnc(-c2cnc3cc(Cl)cnn23)cc1NCCC(F)(F)F please.
# output 15.3

# input Then CCNc1cc(-c2cnc3cc(C#N)cnn23)ncc1C(=O)NC[C@@H](F)C(C)(C)O ?
# output 6.7

# input Entry to check: CCNc1cc(-c2cnc3cc(Cl)cnn23)ncc1C(=O)NC[C@@H](F)C(C)(C)O
# output 21.5

# input Try the compound CC(C)(O)[C@H](F)CNC(=O)c1cnc(-c2cnn3cc(Cl)cnc23)cc1N[C@@H]1COC[C@H]1F
# output 5.3

# input Please give the result for CC(C)Nc1cc(-c2cnc3cc(C#N)cnn23)ncc1C(=O)NCCC1(O)CCCC1 too.
# output 25.6

###

Experiment: Caco Permeability Assay
Format: in vitro ADME
Conditions: human, Caco-2, Caco-2 cells, 3 μM compound
Test readout: Papp at 2 h, 3 µM

Before answering, review these 5 worked examples.
# Compound, Test readout, Endpoint value
rows = [
    ("CC(C)(O)[C@H](F)CNC(=O)c1cnc(-c2cnc3cc(C#N)cnn23)cc1Nc1cnn(CCCF)c1 [Example 281]", "Papp at 2 h, 3 µM", "< 1.5 ×10⁻⁶ cm/s"),
    ("CC(O)CCNc1cc(-c2cnn3cc(Cl)cnc23)ncc1C(=O)NC[C@@H](F)C(C)(C)O (stereo partly shown) [Example 82]", "Papp at 2 h, 3 µM", "< 1.5 ×10⁻⁶ cm/s"),
    ("CC(C)(O)[C@H](F)CNC(=O)c1cnc(-c2cnn3cc(Cl)cnc23)cc1NCCCO [Example 164]", "Papp at 2 h, 3 µM", "< 1.5 ×10⁻⁶ cm/s"),
    ("CC(C)(O)[C@H](F)CNC(=O)c1cnc(-c2cnn3cc(Cl)cnc23)cc1Nc1cnn(C2CCOCC2)c1 [Example 52]", "Papp at 2 h, 3 µM", "< 1.5 ×10⁻⁶ cm/s"),
    ("CC(C)(O)[C@H](F)CNC(=O)c1cnc(-c2cnc3cc(C#N)cnn23)cc1NC1CCOCC1 [Example 146]", "Papp at 2 h, 3 µM", "< 1.5 ×10⁻⁶ cm/s"),
]

# input Consider the compound shown here: CC(C)Nc1cc(-c2cnc3cc(C#N)cnn23)ncc1C(=O)NCC(F)C1CCNCC1 (stereo not shown) [Example 197] What is its recorded Papp at 2 h, 3 µM?
# output < 1.5 ×10⁻⁶ cm/s

# input Next record, please: CC(C)(O)[C@H](F)CNC(=O)c1cnc(-c2cnn3cc(C#N)cnc23)cc1Nc1cnn(CC2CC2)c1 [Example 249]
# output < 1.5 ×10⁻⁶ cm/s

# input Now consider CC(C)(O)[C@H](F)CNC(=O)c1cnc(-c2cnn3cc(C#N)cnc23)cc1NC1CC1 [Example 92] and answer again.
# output 7.4 ×10⁻⁶ cm/s

# input Okay, and CC(C)(O)[C@H](F)CNC(=O)c1cnc(-c2cnn3cc(Cl)cnc23)cc1NC1CCCC1 [Example 67] ?
# output 18.4 ×10⁻⁶ cm/s

# input Same again, this time with CC(C)(F)[C@H](F)CNC(=O)c1cnc(-c2cnc3cc(Cl)cnn23)cc1Nc1cnn(CC(F)F)c1 [Example 263]
# output 21.3 ×10⁻⁶ cm/s
